organism: Sus scrofa; assay: Induction of porcine tubulin polymerisation at 2 times MIC for penicillin-resistant Staphylococcus aureus by fluorescence microscopy
Activity calls are given as the source filed them. No cut-off for these calls is given here.
measure_name: Activity

Field: example entries. Status: answers known.
C[n+]1cc2ccccc2c2ccccc21.[Cl-] ... inactive
C[n+]1cc2ccccc2c2cc(F)ccc21.[Cl-] ... inactive
CC(C)c1cccc2c3ccccc3c[n+](C)c12.[Cl-] ... inactive
Cc1cc(C)c2c(c1)c1ccccc1c[n+]2C.[Cl-] ... inactive

Specify measured Activity for COc1ccc2c(c1)c1ccccc1c[n+]2C.[Cl-] .
inactive

Name the recorded Activity of the item Cc1cccc2c3ccccc3c[n+](C)c12.[Cl-] in your answer.
inactive
